Data provenance is the supplement of paper PMC6555819.

tested on: FXR:RXRa (NR concentration 270 nM, RXRa partner concentration 90 nM); experiment: PBM binding z-score (relative to random genomic background probes); higher = stronger binding; sequences stand for … in GC…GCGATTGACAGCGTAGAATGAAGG
Mark YES for reported PBM binding z-score of 2 or greater; mark NO for anything smaller.

> print(dat)
                     primary.sequence  cat
1  TCTAGTTGGTCAAAGGTCAGACACTCGAAATGCG  YES
2  ATATGTCGGTTATCGGGTCATTCAGTTTGCGCAT  YES
3  ACTAGCAGGCAAAGTTTGGGTCACTCAAACAAAG   NO
4  CATACAGGGTCAGCTAGTCCAGAGTAGGGACGGC  YES
5  CACACAGGGTCAGCTAGGCCAGAGTAGGGACGGC  YES
6  CCTGCTAGGTTATGGTCAGCTAATCTACAGTATG   NO

---

Overview of reported PBM binding z-score across a group of sequences:
system: LXRb homodimer (NR concentration 270 nM); test: PBM binding z-score (relative to random genomic background probes); higher = stronger binding; sequences stand for … in GC…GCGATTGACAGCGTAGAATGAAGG
recorded metric: PBM binding z-score

> print(dat)
                      primary.sequence      recorded.metric  assay.value
 1  TCTCGGAGCACACGAAAGGTCAGAGCTCGACATC  PBM binding z-score       -0.493
 2  CTCGAAAGGACGGTTGAGGTGAGTATACGGATAA  PBM binding z-score       -0.832
 3  CAGCCTAGGTCAGGGCCGGTATAGGAGGAACGTT  PBM binding z-score        -1.51
 4  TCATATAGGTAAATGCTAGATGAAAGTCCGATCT  PBM binding z-score       -0.163
 5  CCTACCGGGCCAAAGGTCATTGATTCCAATGCTC  PBM binding z-score        0.797
 6  ACTCGGAGGACAAAGGCCAGAGCTACGCCAGTGA  PBM binding z-score       -0.835
 7  CAAACTAGGTCAAGGTCAAAGTCGGTTTGTGCCA  PBM binding z-score         1.63
 8  ATCTCTAGGTAAAGATGGTTCAGTGAATGCAAAT  PBM binding z-score        0.169
 9  AGTCAAAGTTCAGGACGAGGTAACGAAAAGCACG  PBM binding z-score        0.307
10  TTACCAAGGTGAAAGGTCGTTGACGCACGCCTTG  PBM binding z-score       -0.135
11  CCGAGTAGGTTATGGGGCATTCAAGCAACGGTGA  PBM binding z-score        0.278
12  GCTAGCGGGCCATTTGGGTCACTCAATGACGGGC  PBM binding z-score       -0.972

---

system: LXRa homodimer (NR concentration 270 nM); experiment: PBM binding z-score (relative to random genomic background probes); higher = stronger binding; sequences stand for … in GC…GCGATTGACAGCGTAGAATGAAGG
Please mark label 1 if the recorded PBM binding z-score is equal to or greater than -0.1, and label 0 if it falls below.

> print(dat)
                      primary.sequence      cat
 1  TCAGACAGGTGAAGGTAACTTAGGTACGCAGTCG  label 1
 2  ATAATGAGGTTAAGATCAGGGAAACAGAATACAT  label 1
 3  GCTGCTAGGTGAGGTTGGTCAGCTAACGGGTACG  label 0
 4  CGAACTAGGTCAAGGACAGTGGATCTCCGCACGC  label 1
 5  TTTGCTAGGTCAGTTGGTCAGCTAACGAGCTGCC  label 1
 6  TCATATAGGTAAAGGTGTAAGTCGAACGATATGA  label 0
 7  CGTCAAAGTTCAACGTAACGTAACAGAAAGCAGC  label 1
 8  TCTCGGAGGACCCGAAAGGTCAGAGCTCGACATC  label 1
 9  TCATATAGGTAATACAGGTGAGAGTCGGCATCTA  label 1
10  TGACAAAGTTCAAAGGTAACGTAAGTATCCACAC  label 1
11  ATCTCTAGGTAAGACTCACTTCAGTGAAGAACGC  label 0

---

test system: RARb:RXRa (NR concentration 270 nM, RXRa partner concentration 90 nM); assay: PBM binding z-score (relative to random genomic background probes); higher = stronger binding; sequences stand for … in GC…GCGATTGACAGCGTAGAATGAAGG
Mark criterion not met for PBM binding z-score values under 4, and criterion met for everything at or above.

> print(dat)
                      primary.sequence                cat
 1  TCTAGTTGGCCAAAGGTCACACACTCGAAATGCG      criterion met
 2  CAAACTAGGTCACTGGAAGGTCAAAGTCCGCATG      criterion met
 3  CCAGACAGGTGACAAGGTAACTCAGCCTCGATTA  criterion not met
 4  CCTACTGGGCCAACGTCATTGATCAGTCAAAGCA  criterion not met
 5  TCTATTAGTTGATTAGGTCAACCGAAACAGCGGA  criterion not met
 6  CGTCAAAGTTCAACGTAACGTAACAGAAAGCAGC      criterion met
 7  CATACTGGGTCAGCTAGGCCAGAGTAGGGACGGC  criterion not met
 8  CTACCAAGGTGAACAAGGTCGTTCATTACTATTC  criterion not met
 9  CCTACTGGGCCACGAGAGGTCATTGATTCAGTGA  criterion not met
10  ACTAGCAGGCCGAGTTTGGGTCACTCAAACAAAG  criterion not met

---

tested on: LXRa:RXRa (NR concentration 270 nM, RXRa partner concentration 90 nM); assay: PBM binding z-score (relative to random genomic background probes); higher = stronger binding; sequences stand for … in GC…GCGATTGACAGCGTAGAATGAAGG
Quick rule: PBM binding z-score of at least 3 means Yes, below that means No.

> print(dat)
                      primary.sequence  cat
 1  CCTACTGGGCCATCAGGTCATTGAGATCAACGTT   No
 2  TCTTGTAGATCGAGCAGGTTAAGAAAGCCTGAGT   No
 3  ACCGAAAGGTCGTGAGGTGAGTATACAGAAAGGC  Yes
 4  CCTGCTAGGTCGATGGTCAGCTAAAGCAGCTCGC   No
 5  CCTCGGAGGACAGAAGGTCACAGCTGTCCGCTTT  Yes
 6  CTACCGAGGTGAACAAGGTCGTTGATTACTATTC   No
 7  CCTCGGAGTACAACAGGAGGTCAGAGCTGCCAGA   No
 8  CGTTACGGGTCACTGACAGGTTATAGCATTTGGA  Yes
 9  TCTATTTGGTCACGGAGGTCACACACGACGGGTA  Yes
10  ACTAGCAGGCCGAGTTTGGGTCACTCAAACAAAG   No
11  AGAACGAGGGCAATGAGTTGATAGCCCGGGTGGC   No
12  GCTGCTAGCTCAACTGATGGTCAGCTAAAGCTCG   No
13  CCCAGTTGGTCAGGAGGTCACACACCGGATATGA  Yes
14  GGAGCGAGGGCATTCGAGTTGATAGCATGGCGAT   No
15  AGAATCAGGTTACCAAAGATCAGGGAAACGCTTG  Yes
16  TCAGACAGGTGAATGTAACTCAGGTACGCAGTCG   No
17  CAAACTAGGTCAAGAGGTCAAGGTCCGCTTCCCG  Yes
18  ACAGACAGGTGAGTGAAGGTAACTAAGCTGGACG   No
19  GGAAGGAGGGCATTCGAGTTGATAGCATGGCGAT   No
20  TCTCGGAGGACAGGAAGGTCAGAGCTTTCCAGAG   No
21  CAAACTAGGTCAAGGTCAAAGGCGGTTTGTGCCA  Yes
22  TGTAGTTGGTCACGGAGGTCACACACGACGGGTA  Yes
23  TCGAGTAGGTTAAGGGCATTCAGAATGGCGTCGA   No
24  TATATTAGTTGAAGGGCAACCGACGAGTCCGTTT   No
25  ATCTCTAGGTAACCAAGTTCAGTGCATGCCGAAC   No
26  TCTTATAGGTAAAGGTGAAAGTCGAACGATATGA   No
27  TTACCAAGGTGAGGTGAGGTCGTTGATCCAACTC   No
28  AGAACGAGGGCAATGCGTTGATAGCACGGGTGGC   No
29  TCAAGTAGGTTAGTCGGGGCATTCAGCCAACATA   No
30  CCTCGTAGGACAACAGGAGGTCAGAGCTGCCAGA   No
31  GCTGCTGGGTCAACTGATGGTCAGCTAAAGCTCG   No
32  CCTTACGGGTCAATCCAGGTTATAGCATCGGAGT  Yes
33  CCTAGCAAGCCAGGGTCACTCAAGCATTTCGCTT   No
34  ATCTCTACGTAAAGATAGTTCAGTGAATGCAAAT   No
35  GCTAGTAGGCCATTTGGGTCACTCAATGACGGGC   No
36  CAAACTAGGTCACCAAAGGTCAAAGTCGAATGAC  Yes
37  CCTGCTAGGTCATGGCCAGCTAATCTACAGTATG   No
38  AGTCAAAGTTCACTATGTAACGTAAGATTCAGCT  Yes
39  CGTCCAAGGTCAGAGAGGTCAGGGAATGCCGAGT  Yes
40  GCATATAGGTAATACAAGGTGAACGTCCGATTGT   No
41  TCTCGGGGGACACGAAAGGTCAGAGCTCGACATC  Yes
42  CCTAGCCGGCCAGGGTCACTCAAGCATTTCGCTT   No
43  CCTACTGGGCCATCAGGTCAATGATATCAACGTT   No
44  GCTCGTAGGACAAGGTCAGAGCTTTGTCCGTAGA   No
45  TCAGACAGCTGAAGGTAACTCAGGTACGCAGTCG   No
46  TCTAACAGGCCAGAGGGTCACTCAAGAGGTACGG   No
47  CGTCAAAGTTCAAGGTACCGTAACAGAAAGCAGC  Yes
48  TCAGACAGGTGAAGGTAACTGAGGTACGCAGTCG   No
49  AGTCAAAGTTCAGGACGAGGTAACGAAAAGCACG  Yes
50  GCGACTGGGGCATCAGCAGGTTACCACAACTTAA   No
